assay: viability loss with induced miR-34 in A549 – imaging, A549 dox-inducible miR-34, nuclei and caspase counts, primary screen (AID 1347080); details: A549 miR-34 inducible, Hoechst nuclei count, 48 h; cell number ratio, induced over uninduced
Activity calls are given as the source filed them.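 How the source made its calls: active means compounds whose cell count with miR-34 switched on is under 0.7 times the count with it off; inactive means the rest.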
Outcome codes: active, inactive

1. Nc1nc2c([nH]c(=O)n2[C@@H]2O[C@H](CO)[C@@H](O)[C@H]2O)c(=O)[nH]1	inactive
2. C[C@@H](NCc1cc(Br)cc2[nH]c(=O)c(=O)[nH]c12)P(=O)(O)O	inactive
3. COC(=O)Nc1ccc2[nH]cc(CCNC(C)=O)c2c1	inactive
4. CCCCCCCCCCCCCCCC(=O)OC[C@@H](O)COP(=O)([O-])OCC[N+](C)(C)C	inactive
5. CCS(=O)(=O)N(C)[C@H]1c2cc(C#N)ccc2OC(C)(C)[C@@H]1O	inactive
6. NCCCNCCCCN(CCCN)[N+]([O-])=NO	inactive
7. C1CCC(N=C(NC23CC4CC(CC(C4)C2)C3)N2CCOCC2)CC1	inactive
8. CCOC(=O)C1CSC(Cc2ccc(OCc3ccc([N+](=O)[O-])cc3)cc2)N1 (stereo unspecified)	inactive
9. CCCCC[C@@](C)(O)/C=C/[C@@H]1C(C/C=C\CCCC(=O)O)[C@@H](O)C[C@H]1O (stereo partly specified)	inactive
10. O=C(Nc1ccc2c(=O)cc(-c3nn[nH]n3)oc2c1)c1ccc(OCCCCc2ccccc2)cc1	inactive
11. CCCCC[C@H](O)/C=C/[C@@H]1[C@@H](CCCCCCC(=O)O)[C@H](O)C[C@@H]1O	inactive
12. C[C@]12CC[C@@H]3c4cc(O)c(O)cc4CC[C@H]3[C@@H]1CC[C@@H]2O	inactive
13. Clc1ccc(/C=C/c2cc(Cl)cc(Cl)c2)cc1	inactive
14. CN(C)C(=O)C(=O)c1cn(C)c2cc(Cl)c(C(=O)N3CCC(Cc4ccc(F)cc4)CC3)cc12	inactive
15. N#C/C(=C\c1ccc(O)c(O)c1)C(=O)NCCCc1ccccc1	inactive
16. O=C(CN=C(c1ccccc1)c1ccccc1)OCc1ccccc1	inactive
17. O=C(CCc1ccc(O)c(O)c1)N[C@@H](CC(=O)OCc1ccccc1)C(=O)OCc1ccccc1	inactive
18. CN=C1C=C2C(=NC=NC2=Nc2cccc(Br)c2)C=N1	active
19. CCCCCC(=O)OC[C@H](CO)OC(=O)CCCCC	inactive
20. C#Cc1cccc(Nc2ncnc3cc(OCCOC)c(OCCO)cc23)c1	inactive
21. CCCCCC/C=C\CCCCCCCC(=O)OCC	inactive

====

test: viability loss in pontine glioma line – cell-based, SU-DIPG-XIII, MIPE5.0, CellTiter-Glo, qHTS, dose response (AID 1347064); conditions: CellTiter-Glo ATP luminescence;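 on AC50: cells exposed to compound for 48 hours before the viability read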
Inconclusive results are not listed. Calls of active or inactive are those of the source. Cut-off not given; nearly all actives show AC50 up to about 23 µM.
Outcome codes: active, inactive

1. NCC1CCN(c2nccc(-c3ccc4ccccc4c3)n2)CC1	active
2. Clc1ccc(C2(c3ccc(-c4cn[nH]c4)cc3)CCNCC2)cc1	active
3. OC1CCC(Oc2cccc3cnc(Nc4ccc5nc[nH]c5c4)nc23)CC1 (centres undefined)	active
4. c1ccc2c(-c3cnn4cc(-c5ccc(OCCN6CCOCC6)cc5)cnc34)ccnc2c1	active
5. O=C(Nc1cc(Cl)cc2c1[nH]c1cnccc12)c1cccnc1	inactive
6. O=c1c(-c2ccc(O)cc2)coc2cc(O[C@@H]3O[C@H](CO)[C@@H](O)[C@H](O)[C@H]3O)ccc12	inactive
7. Clc1cccc(-n2nnnc2NCc2ccccc2Oc2ccccn2)c1Cl	inactive
8. CCc1cc(C(N)=O)ccc1-n1nc(C(C)C)c2c(-n3cnc(-c4cnn(C)c4)c3)ccnc21	active
9. CC1=C(c2ccc(O)cc2)[C@H](c2ccc(OCCN3CCCCC3)cc2)Oc2cc(O)ccc21	active
10. COCc1c(-c2ccc(NC(=O)Nc3cc(C(F)(F)F)ccc3F)c(F)c2)c2c(N)ncnn2c1CN1CCOCC1	active
11. O=C(O)Cn1nnc(-c2cc(N3CCC(Oc4cc(F)ccc4Br)CC3)no2)n1	inactive
12. C[C@@H]1COCCN1c1cc(=O)n2c(n1)N(Cc1cncc(Cl)c1)[C@H](C(F)(F)F)CC2	inactive
13. CC(C)NC(=O)N1CC[C@H](N=C2Nc3cc(F)ccc3N(CC(F)F)c3ccc(Cl)cc32)C1	inactive
14. C=C1C(=O)O[C@@H]2[C@H]3O[C@]3(C)CC/C=C(\C)CC[C@@H]12	active
15. CCS(=O)(=O)N1CCC([C@@H](C)n2c(C)c(C(=O)NCc3c(OC)cc(C)[nH]c3=O)c3ccccc32)CC1	inactive
16. Cc1ccc(Nc2ncc3c(n2)N(C)C(=O)N(c2cc(NC(=O)c4cccc(C(F)(F)F)c4)ccc2C)C3)cn1	active
17. COc1cc2nc(-c3ccc(N4CCN(C)CC4)cc3)nc(NCCN3CCOCC3)c2cc1OC	active
18. COc1ccc(S(=O)(=O)NCc2ccc(C(=O)NCCc3ccc(Cl)cn3)cc2)cc1	inactive
19. O=C(NOCCO)c1cc(CN2OCCCC2=O)c(F)c(F)c1Nc1ccc(I)cc1F	active

====

Entries and their plate-normalised HSF1 focus index
assay: compounds altering HSF1 focus formation in cells – imaging, Selleck Cancer Library (AID 1347162); details: human cells, HSF1 nuclear foci imaging, at 10 µM; active compounds read low
The source made the active and inactive calls. Rule as the data show it: active = plate-normalised HSF1 focus index below about 0.46; inactive = the rest.
measurement-label: plate-normalised HSF1 focus index

1. CNC(=O)c1cc(Oc2ccc(NC(=O)Nc3cc(C(C)(C)C)nn3-c3ccc4ncccc4c3)c(F)c2)ccn1	1.01 (inactive)
2. CC(C)OC(=O)C1=CN(C(=O)c2ccc(F)c(F)c2)CC(C)(C)c2c1[nH]c1ccccc21	1.17 (inactive)
3. CCN1CCN(Cc2ccc(-c3cc4c(N[C@H](C)c5ccccc5)ncnc4[nH]3)cc2)CC1	1.06 (inactive)
4. COc1ccc(CCN2CCN(CCCc3ccccc3)CC2)cc1OC	1.24 (inactive)
5. Cc1ccc(C(=O)Nc2ccc(CN3CCN(C)CC3)c(C(F)(F)F)c2)cc1C#Cc1cnc2cccnn12	1.09 (inactive)

====

experiment: MELAS cybrid and Rieske KO viability enhancers – cell-based, MELAS cybrids, Rieske KO mouse fibroblasts, CellTiter-Glo, primary screen (AID 1508586); settings: MELAS cybrid survival, low glucose, CellTiter-Glo 48 h; active compounds read high;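 further: z relative to plate mean and SD of compound and empty wells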
measurement-label: z-score

1) Cc1cc(Nc2ncnc3ccc(-c4ccc(CNCCS(C)(=O)=O)o4)cc23)ccc1Oc1ccn2ncnc2c1	1.86
2) CC1(C)CCC2=C(O1)c1ccccc1C(=O)C2=O	1.23
3) COc1ccc(-c2c(-c3ccc(O)cc3O)n[nH]c2C)cc1	0.614
4) C=CC(=O)Nc1ccc2ncnc(Nc3cccc(Br)c3)c2c1	-0.254
5) Cc1cc(Nc2cc(CN3CCOCC3)c3nc(C)c(Cc4ccc(Cl)cc4F)n3n2)n[nH]1	-0.366
6) Cc1noc(-c2ccc(CSCCC(=O)O)cc2)c1NC(=O)OC(C)c1ccccc1Cl (stereo not given)	-0.439
7) COc1cc2nccc(Oc3ccc(NC(=O)NC4CC4)c(Cl)c3)c2cc1C(N)=O	-0.303
8) CCCNC1CCc2nc(N)sc2C1 (stereo not given)	-0.192
9) C=C1C(=O)O[C@@H]2[C@H]3O[C@]3(C)CC/C=C(\C)CC[C@@H]12	2.28
10) O=C(O)[C@H](Cc1c[nH]c2ccccc12)N1C(=O)c2ccccc2C1=O	-0.375
11) O=C(O)c1ccc(O)c2ncccc12	-0.339
12) C=CC(=O)Nc1cccc(Nc2nc(Nc3ccc(N4CCN(C(C)=O)CC4)cc3OC)ncc2C(F)(F)F)c1	-0.595
13) O=C(O)CCCCC(CCSCc1ccccc1)SCc1ccccc1 (stereo not given)	-0.291
14) Cn1c(Nc2ccc(C(F)(F)F)cc2)nc2cc(Oc3ccnc(-c4ncc(C(F)(F)F)[nH]4)c3)ccc21	0.723
15) COc1cc(NC(=O)c2ccc(-c3ccc(Cl)cc3)o2)cc(OC)c1	-0.392
16) CS(=O)(=O)c1ccc(-c2cnc(N)c(C(=O)Nc3ccccc3)n2)cc1	-0.286
17) c1cncc(CN2CCC(n3ncc4c(N5CCOCC5)nc(-c5ccc6[nH]ccc6c5)nc43)CC2)c1	4.98
18) CC1(C)O[C@@H]2C[C@H]3[C@@H]4CCC5=CC(=O)C=C[C@]5(C)[C@H]4[C@@H](O)C[C@]3(C)[C@]2(C(=O)CO)O1	-0.574
19) CCN(CC)Cc1ccc2cc(COC(=O)Nc3ccc(C(=O)NO)cc3)ccc2c1	1.32
20) CC1CCC(C(=O)N(c2cc(C#CC(C)(C)C)sc2C(=O)O)C2CCC(O)CC2)CC1 (stereo not given)	0.177

====

assay: drug combination growth inhibition, ovarian cancer – cell-based, oncology-focused library, rucaparib conditional, profiling panel (AID 1508598); conditions: patient-derived ovarian cancer cells, CellTiter-Glo viability, 144 h; at 0.0781 µM; OCI-P5x cells; with rucaparib 20 µM; 100% = cells with rucaparib alone
Active and inactive are the calls of the source.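 Rule for the calls: active = normalized viability below 100% at a tested concentration; inactive = the rest.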
Outcome codes: active, inactive

1. C=C(c1ccc(C(=O)O)cc1)c1cc2c(cc1C)C(C)(C)CCC2(C)C	inactive
2. Cc1cnc(-c2ccccc2C(C)C)nc1NCc1ccc(-n2ccnn2)cc1	inactive
3. O=C(O)c1ccc2c(c1)nc(Nc1cccc(Cl)c1)c1ccncc12	active
4. CC(=O)Nc1cccc(-n2c(=O)n(C3CC3)c(=O)c3c(Nc4ccc(I)cc4F)n(C)c(=O)c(C)c32)c1	active
5. CN(C)Cc1ccc(-c2nc3cccc4c3n2CCNC4=O)cc1	active
6. Fc1cc(-c2cccc3ncc(-c4cnn(C5CCNCC5)c4)nc23)cc(F)c1CN1CCOCC1	active
7. Cc1nc2c(-c3cnc(N)nc3)nc(N3CCOCC3)nc2n1C(C)C	active
8. N#CCNC(=O)c1ccc(-c2ccnc(Nc3ccc(N4CCOCC4)cc3)n2)cc1	active
9. CCCCCCCCc1ccc(CCC(N)(CO)CO)cc1	active
10. CCCCc1nc2cc(/C=C/C(=O)NO)ccc2n1CCN(CC)CC	active
11. C#Cc1cccc(Nc2ncnc3cc(OC)c(OCCCCCCC(=O)NO)cc23)c1	inactive
12. Cn1c(=O)c(F)c(Nc2ccc(I)cc2F)c2c(=O)n(C[C@@H](O)CO)cnc21	active
13. O=S(=O)(O)CCSSCCS(=O)(=O)O	active
14. CC(/C=C/C(=O)NO)=C\[C@@H](C)C(=O)c1ccc(N(C)C)cc1	active
15. CC(C)(C)c1cc(NC(=O)Nc2ccc(-c3cn4c(n3)sc3cc(OCCN5CCOCC5)ccc34)cc2)no1	active
16. Cc1cnc(-c2cnc(NCCNc3ccc(C#N)cn3)nc2-c2ccc(Cl)cc2Cl)[nH]1	inactive
17. CC(C)n1nc(-c2ccc3oc(N)nc3c2)c2c(N)ncnc21	active
18. O=C(Nc1ccc(OC(F)(F)F)cc1)c1sccc1NCc1ccnc2ccccc12	inactive
19. COc1cc2nccc(Oc3ccc(NC(=O)Nc4cc(C)on4)c(Cl)c3)c2cc1OC	active
20. C=CC(=O)N1CCC[C@@H](n2nc(-c3ccc(Oc4ccccc4)cc3)c3c(N)ncnc32)C1	active
21. Cc1ccc([C@@H]2O[C@H](CO)[C@@H](O)[C@H](O)[C@H]2O)cc1Cc1ccc(-c2ccc(F)cc2)s1	inactive
